Recorded values, source patent US20250382363A1.

# SYSTEM_NAME: T1, human a-PD-L1 Fc (Sino Biological, 10084-H02H, LC11NO2402) (human, UniProt Q9NZQ7 19-239)
# T1 construct: Bought Fc fusion immobilised on the SPR chip; Printed as 'a-PD-L1 Fc' but used as the antigen (ligand) for the anti-PD-L1 scFvs; also called Human PD-L1; not shown: Fc part
# PROTOCOL_SUMMARY: SPR, PD-L1 Fc immobilised, scFv analyte, 1:1 fit
MEASURED_METRIC: pKd
Scale: negative log10 of molar concentration, which is what pKd denotes.

Use the examples below as a reference point.
- BINDER: "PRO2986 (scFv 37-20-B03-sc09.1_(T146A)) (scFv, PRO2230 variant; VH substitution, AHo numbering; also called PRO2230 T146A) scFv: DIQMTQSPASLSASVGDRVTITCQASQSIGTYLAWYQQKPGKPPKLLIYRAFILASGVPSRFSGSGSGTDFTLTISSLQPEDFATYYCQSNFYSDSTTIGPNAFGTGTKVTVLGGGGGSGGGGSGGGGSGGGGSEVQLVESGGGLVQPGGSLRLSCAASGFSFNSDYWIYWVRQAPGKGLEWIASIYGGSSGNTQYASWAQGRFTISRDNSKNTVYLQMNSLRAEDTAVYFCARGYVDYGGATDLWGQGTLVAVSS"
  QUANTITATIVE_READOUT: 10.16
- BINDER: "PRO3313 (scFv 37-20-B03-sc09.1_(T101S, T146R)) (scFv, PRO2230 variant; VH substitutions, AHo numbering; also called PRO2230 T101S-T146R) scFv: DIQMTQSPASLSASVGDRVTITCQASQSIGTYLAWYQQKPGKPPKLLIYRAFILASGVPSRFSGSGSGTDFTLTISSLQPEDFATYYCQSNFYSDSTTIGPNAFGTGTKVTVLGGGGGSGGGGSGGGGSGGGGSEVQLVESGGGLVQPGGSLRLSCAASGFSFNSDYWIYWVRQAPGKGLEWIASIYGGSSGNTQYASWAQGRFTISRDNSKNTVYLQMNSLRAEDSAVYFCARGYVDYGGATDLWGQGTLVRVSS"
  QUANTITATIVE_READOUT: 10.85
- BINDER: "PRO2947 (scFv 37-20-B03-sc09.1_(T146K)) (scFv, PRO2230 variant; VH substitution, AHo numbering; also called PRO2230 T146K) scFv: DIQMTQSPASLSASVGDRVTITCQASQSIGTYLAWYQQKPGKPPKLLIYRAFILASGVPSRFSGSGSGTDFTLTISSLQPEDFATYYCQSNFYSDSTTIGPNAFGTGTKVTVLGGGGGSGGGGSGGGGSGGGGSEVQLVESGGGLVQPGGSLRLSCAASGFSFNSDYWIYWVRQAPGKGLEWIASIYGGSSGNTQYASWAQGRFTISRDNSKNTVYLQMNSLRAEDTAVYFCARGYVDYGGATDLWGQGTLVKVSS"
  QUANTITATIVE_READOUT: 10.39

Please fill in: pKd reported for PRO2914 (scFv 37-20-B03-sc09.1_(T101S, L144A, T146Q)) (scFv, PRO2230 variant; VH substitutions, AHo numbering; also called PRO2230 T101S-L144A-T146Q) scFv: DIQMTQSPASLSASVGDRVTITCQASQSIGTYLAWYQQKPGKPPKLLIYRAFILASGVPSRFSGSGSGTDFTLTISSLQPEDFATYYCQSNFYSDSTTIGPNAFGTGTKVTVLGGGGGSGGGGSGGGGSGGGGSEVQLVESGGGLVQPGGSLRLSCAASGFSFNSDYWIYWVRQAPGKGLEWIASIYGGSSGNTQYASWAQGRFTISRDNSKNTVYLQMNSLRAEDSAVYFCARGYVDYGGATDLWGQGTAVQVSS = 10.60

Please fill in: pKd reported for PRO3317 (scFv 37-20-B03-sc09.1_(T101Q)) (scFv, PRO2230 variant; VH substitution, AHo numbering; also called PRO2230 T101Q) scFv: DIQMTQSPASLSASVGDRVTITCQASQSIGTYLAWYQQKPGKPPKLLIYRAFILASGVPSRFSGSGSGTDFTLTISSLQPEDFATYYCQSNFYSDSTTIGPNAFGTGTKVTVLGGGGGSGGGGSGGGGSGGGGSEVQLVESGGGLVQPGGSLRLSCAASGFSFNSDYWIYWVRQAPGKGLEWIASIYGGSSGNTQYASWAQGRFTISRDNSKNTVYLQMNSLRAEDQAVYFCARGYVDYGGATDLWGQGTLVTVSS = 10.38
